Tick YES if logP is 3 or greater. Tick NO if logP is less than 3.

INSERT INTO measurements (compound, label_class) VALUES
  ('O=C(CN1CCCCC1)Nc1cccc(C(F)(F)F)c1', 'YES'),
  ('O=C(CN1CCCCC1)Nc1ccc(F)cc1', 'NO'),
  ('O=C(CN1CCCCC1)Nc1ccccc1Cl', 'NO');

---

- run.description: method code SF-AS, from PMID: 594121
- setup.conditions: pH 7.4
observed.property: logD

INSERT INTO measurements (compound, result) VALUES
  ('O=C(CN1CCCCC1)Nc1cccc(I)c1', 3.23),
  ('O=C(CN1CCCCC1)Nc1ccccc1', 2.41),
  ('CCOc1ccc(NC(=O)CN2CCCCC2)cc1', 2.82),
  ('O=C(CN1CCCCC1)Nc1cccc(Br)c1', 2.93),
  ('O=C(CN1CCCCC1)Nc1ccc([N+](=O)[O-])cc1', 2.25),
  ('O=C(CN1CCCCC1)Nc1ccc(I)cc1', 3.21),
  ('O=C(CN1CCCCC1)Nc1ccc(Br)cc1', 2.88);

---

- run.description: method code SF-AS, from PMID: 594121
Note to self: use Met only for logP readings below 3; a reading exactly at 3 still gets Not met.

INSERT INTO assay_data (compound, label_class) VALUES
  ('O=C(CN1CCCCC1)Nc1cccc(Cl)c1', 'Not met'),
  ('O=C(CN1CCCCC1)Nc1cccc([N+](=O)[O-])c1', 'Met'),
  ('O=C(CN1CCCCC1)Nc1ccccc1[N+](=O)[O-]', 'Met'),
  ('COc1ccccc1NC(=O)CN1CCCCC1', 'Met'),
  ('Cc1ccccc1NC(=O)CN1CCCCC1', 'Met'),
  ('CCOc1cccc(NC(=O)CN2CCCCC2)c1', 'Not met'),
  ('O=C(CN1CCCCC1)Nc1cccc(F)c1', 'Met'),
  ('O=C(CN1CCCCC1)Nc1ccccc1F', 'Met'),
  ('COc1cccc(NC(=O)CN2CCCCC2)c1', 'Met');

---

logP values for the compounds below.
- run.description: method code SF-AS, from PMID: 594121
observed.property: logP

INSERT INTO results (compound, numeric_readout) VALUES
  ('O=C(CN1CCCCC1)Nc1ccccc1Br', 2.94),
  ('Cc1ccc(NC(=O)CN2CCCCC2)cc1', 2.95),
  ('Cc1cccc(NC(=O)CN2CCCCC2)c1', 2.97),
  ('O=C(CN1CCCCC1)Nc1ccc(C(F)(F)F)cc1', 3.06);
